Hello, the source for this data is patent US20230035798A1, in case you need it.

Assay target: membrane LIGHT without residues 81-84 (EL4-NC-LIGHT cells) (human, UniProt O43557 1-240)
Sequence (O43557 other isoform, or with tags, fused parts or gaps): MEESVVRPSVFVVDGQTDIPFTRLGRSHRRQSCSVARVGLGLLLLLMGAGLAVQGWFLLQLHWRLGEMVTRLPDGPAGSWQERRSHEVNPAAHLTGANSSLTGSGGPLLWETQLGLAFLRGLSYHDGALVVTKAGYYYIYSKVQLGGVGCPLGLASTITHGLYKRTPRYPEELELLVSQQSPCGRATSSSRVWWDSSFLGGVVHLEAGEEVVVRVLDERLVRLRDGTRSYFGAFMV
Protocol notes: cell-based or functional assay
I'd appreciate it if you marked entries 1 when IC50, inhibition of IL-8 secretion from HT-29 cells (EL4-NC-LIGHT cells) is lower than 0.3 nM and -1 when it is not.

{"Binder": "3B04_var3 (antibody, human IgG4, V domains shown, human IgG4 (S241P, L248E, Kabat); also called 3B04 VL1VH3 (var3)) VH: QVQLVQSGAEVKKPGASVKVSCKASGYTFTDYEMHWVRQAPGQGLEWMGEIDPETGDTAYAQKFQGRVTLTADKSTSTAYMEFSSLRSEDTAVYYCSRETDYFFDYWGQGTLVTVSS VL: DIQMTQSPSSLSASVGDRVTITCGASENIYGALNWYQRKQGKAPQLLIYGATNLADGVSSRFSGSGSGRDYTLTISSLQPEDFATYYCQNVLTTPWTFGQGTKLEIKR", "Answer label": 1}
{"Binder": "3D12_var4 (antibody, human IgG4, V domains shown, human IgG4 (S241P, L248E, Kabat); also called 3D12 VL1VH4 (var4)) VH: QVQLVQSGAEVKKPGASVKVSCKASGYTFTDSEMHWVRQAPGQGLEWMGEIDPETGGTAYAQKFQGRVTLTADKSTSTAYMELSSLRSEDTAVYYCSRETDYFFDYWGQGTLVTVSS VL: DIQMTQSPSSLSASVGDRVTITCGASENIYGALNWYQRKQGKAPQLLIYGATNLADGVSSRFSGSGSGRDYTLTISSLQPEDVATYYCQNVLSTPWTFGQGTKLEIKR", "Answer label": -1}
{"Binder": "3B04_var11 (antibody, human IgG4, V domains shown, human IgG4 (S241P, L248E, Kabat); also called 3B04 VL3VH3 (var11)) VH: QVQLVQSGAEVKKPGASVKVSCKASGYTFTDYEMHWVRQAPGQGLEWMGEIDPETGDTAYAQKFQGRVTLTADKSTSTAYMEFSSLRSEDTAVYYCSRETDYFFDYWGQGTLVTVSS VL: DIQMTQSPSSLSASVGDRVTITCGASENIYGALNWYQQKPGKAPKLLIYGATNLADGVPSRFSGSGSGRDYTLTISSLQPEDFATYYCQNVLTTPWTFGQGTKLEIKR", "Answer label": 1}
{"Binder": "3D12_var7 (antibody, human IgG4, V domains shown, human IgG4 (S241P, L248E, Kabat); also called 3D12 VL2VH3 (var7)) VH: QVQLVQSGAEVKKPGASVKVSCKASDYTFTDSEIHWVRQAPGQGLEWMGEIDPETGGTAYAQKFQGRVTLTADKSTSTAYMELSSLRSEDTAVYYCSRETDYFFDYWGQGTLVTVSS VL: DIQMTQSPSSLSASVGDRVTITCGASENIYGALNWYQRKQGKAPKLLIYGATNLADGVPSRFSGSGSGRDYTLTISSLQPEDVATYYCQNVLSTPWTFGQGTKLEIKR", "Answer label": -1}

Please state whether IC50, inhibition of IL-8 secretion from HT-29 cells (EL4-NC-LIGHT cells) is below 0.3 nM for 3B04_var14 (antibody, human IgG4, V domains shown, human IgG4 (S241P, L248E, Kabat); also called 3B04 VL4VH2 (var14)) VH: QVQLVQSGAEVKKPGASVKVSCKASGYTFTDYEMHWVRQAPGQGLEWIGEIDPETGDTAYSQKFQGRVTLTADKSTSTAYMEFSSLRSEDTAVYYCSRETDYFFDYWGQGTLVTVSS VL: DIQMTQSPSSLSASVGDRVTITCRASENIYGALNWYQQKPGKAPKLLIYGATNLAEGVPSRFSGSGSGRDYTLTISSLQPEDFATYYCQNVLTTPWTFGQGTKLEIKR
1

Here's an entry: 3B04_var12 (antibody, human IgG4, V domains shown, human IgG4 (S241P, L248E, Kabat); also called 3B04 VL3VH4 (var12)) VH: QVQLVQSGAEVKKPGASVKVSCKASGYTFTDYEMHWVRQAPGQGLEWMGEIDPETGDTAYAQKFQGRVTLTADKSTSTAYMELSSLRSEDTAVYYCSRETDYFFDYWGQGTLVTVSS VL: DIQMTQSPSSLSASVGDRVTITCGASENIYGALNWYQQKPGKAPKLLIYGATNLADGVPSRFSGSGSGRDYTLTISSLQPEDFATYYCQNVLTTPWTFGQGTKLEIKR . Is its IC50, inhibition of IL-8 secretion from HT-29 cells (EL4-NC-LIGHT cells) below 0.3 nM?
1

Bench note: check whether 3B04_var13 (antibody, human IgG4, V domains shown, human IgG4 (S241P, L248E, Kabat); also called 3B04 VL4VH1 (var13)) VH: QVQLVQSGAEVKKPGASVKVSCKASGYTFTDYEMHWVRQAPGQGLEWIGEIDPETGDTAYSQKFKGRATLTADKSTSTAYMEFSSLRSEDTAVYYCSRETDYFFDYWGQGTLVTVSS VL: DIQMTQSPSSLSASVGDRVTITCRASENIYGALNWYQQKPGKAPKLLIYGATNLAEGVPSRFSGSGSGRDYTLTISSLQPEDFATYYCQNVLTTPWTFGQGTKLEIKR shows IC50, inhibition of IL-8 secretion from HT-29 cells (EL4-NC-LIGHT cells) below 0.3 nM
1

Input 3B04_var2 (antibody, human IgG4, V domains shown, human IgG4 (S241P, L248E, Kabat); also called 3B04 VL1VH2 (var2)) VH: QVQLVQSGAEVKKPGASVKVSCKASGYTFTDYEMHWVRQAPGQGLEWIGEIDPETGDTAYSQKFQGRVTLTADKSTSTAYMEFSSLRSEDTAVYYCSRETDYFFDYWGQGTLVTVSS VL: DIQMTQSPSSLSASVGDRVTITCGASENIYGALNWYQRKQGKAPQLLIYGATNLADGVSSRFSGSGSGRDYTLTISSLQPEDFATYYCQNVLTTPWTFGQGTKLEIKR ; condition: IC50, inhibition of IL-8 secretion from HT-29 cells (EL4-NC-LIGHT cells) strictly below 0.3 nM. Does it hold?
1

is_below(IC50, inhibition of IL-8 secretion from HT-29 cells (EL4-NC-LIGHT cells), 0.3 nM) for 3D12 (antibody, human IgG4, V domains shown, chimeric: mouse variable domains on human IgG4 HC (S-to-P and L-to-E at 248) and human CL; also called Parental 3D12; 3D12 chimeric) VH: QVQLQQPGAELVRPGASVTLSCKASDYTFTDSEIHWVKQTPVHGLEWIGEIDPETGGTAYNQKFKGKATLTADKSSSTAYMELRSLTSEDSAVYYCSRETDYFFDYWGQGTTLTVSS VL: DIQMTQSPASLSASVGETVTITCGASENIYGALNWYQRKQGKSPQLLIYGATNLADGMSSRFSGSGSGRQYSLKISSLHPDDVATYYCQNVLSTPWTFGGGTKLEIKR ?
-1

Here's an entry: 3D12_var1 (antibody, human IgG4, V domains shown, human IgG4 (S241P, L248E, Kabat); also called 3D12 VL1VH1 (var1)) VH: QVQLVQSGAEVKKPGASVKVSCKASDYTFTDSEIHWVRQAPGQGLEWIGEIDPETGGTAYNQKFKGRATLTADKSTSTAYMELSSLRSEDTAVYYCSRETDYFFDYWGQGTLVTVSS VL: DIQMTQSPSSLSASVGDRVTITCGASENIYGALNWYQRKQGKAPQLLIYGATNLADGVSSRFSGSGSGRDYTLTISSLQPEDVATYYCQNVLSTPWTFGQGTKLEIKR . Is its IC50, inhibition of IL-8 secretion from HT-29 cells (EL4-NC-LIGHT cells) below 0.3 nM?
-1
